- subject-of-test: LYPLA2 (Mus musculus)
- Construct: a complex proteome endogenously expressing LYPLA1/2 was incubated with test compound; from tissue; host or cells: mouse brain, membrane fraction
- Sequence (Q9WTL7 whole entry): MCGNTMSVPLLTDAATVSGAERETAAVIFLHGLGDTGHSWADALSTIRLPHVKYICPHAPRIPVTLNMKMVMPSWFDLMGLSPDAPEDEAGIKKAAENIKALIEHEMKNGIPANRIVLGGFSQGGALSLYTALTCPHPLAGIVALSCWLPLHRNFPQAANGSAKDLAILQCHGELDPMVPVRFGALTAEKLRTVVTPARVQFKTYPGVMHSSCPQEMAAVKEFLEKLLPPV
- test: Gel-based competitive ABPP in vitro, mouse brain membrane proteome
- Assay type: biochemical
- measurement-setup: 10 μM compound, 30 min, one replicate; read-out: LYPLA2 % INH 10 μM
observed-property: inhibition at 10 µM (%)
Supply the numeric figure in %, leaving out any unit text.

Please review the following examples before continuing.
>>> df
                                   compound  data_value
0  CN(C)c1ccc(C(=O)N2CCN3C(=O)N(OC(=O)N4CCC(CCc5ccc(Cl)cc5)CC4)C(=O)C3C2)cc1 (stereo not shown)         100
1  O=C(ON1C(=O)C2CN(CCc3ccccc3)CCN2C1=O)N1CCC(CCc2ccc(Cl)cc2)CC1 (stereo not shown)          95
2  COc1ccc(C(=O)N2CCN3C(=O)N(OC(=O)N4CCC(CCc5ccc(Cl)cc5)CC4)C(=O)C3C2)cc1 (stereo not shown)         100
3  O=C(ON1C(=O)C2CN(C(=O)c3ccc(Br)cc3)CCN2C1=O)N1CCC(CCc2ccc(Cl)cc2)CC1 (stereo not shown)          95
4  CC(C)(C)OC(=O)N1CCN2C(=O)N(OC(=O)N3CCC(CCc4ccc(Cl)cc4)CC3)C(=O)C2C1 (stereo not shown)         100

Observed inhibition at 10 µM on LYPLA2 (Mus musculus), entry CC(C)(C)OC(=O)N1CCN2C(=O)N(OC(=O)N3CCCCC3)C(=O)C2C1 (stereo not shown) , equals 0

Observed inhibition at 10 µM on LYPLA2 (Mus musculus), entry CC(C)(C)OC(=O)N1CCN2C(=O)N(OC(=O)N3CCC(C(=O)Nc4ccccc4)CC3)C(=O)C2C1 (stereo not shown) , equals 0
